Test system: vancomycin-resistant Enterococcus (VRE)
protocol.notes: agar dilution method, inhibitory effect on VRE
Assay type: cell-based
setup.conditions: Enterococcus, read-out: Minimum inhibitory concentration (MIC50, μg/ml) VRE

| compound | readout.units | MIC50 |
| --- | --- | --- |
| Cn1nnc(-c2ccc(-c3ccc(N4C[C@@H](C(O)CF)OC4=O)cc3F)cn2)n1.O=P(O)(O)O (stereo partly shown) | µg/mL | 0.2 |
| O=C1O[C@H](CO)CN1c1ccc(-c2ccc(-c3nnn(C4CC4)n3)nc2)c(F)c1.O=P(O)(O)O | µg/mL | 0.4 |
| CCCn1nnc(-c2ccc(-c3ccc(N4C[C@H](C(O)F)OC4=O)cc3F)cn2)n1.O=P(O)(O)O (stereo partly shown) | µg/mL | 0.2 |
| C=Cn1nnc(-c2ccc(-c3ccc(N4C[C@H](C(C)O)OC4=O)cc3F)cn2)n1.O=P(O)(O)O (stereo partly shown) | µg/mL | 1.1 |
| O=C1O[C@@H](CO)CN1c1ccc(-c2ccc(-c3nnn(C4CC4)n3)nc2)c(F)c1.O=P(O)(O)O | µg/mL | 0.7 |
| CCn1nnc(-c2ccc(-c3ccc(N4C[C@H](C(C)O)OC4=O)cc3F)cn2)n1.O=P(O)(O)O (stereo partly shown) | µg/mL | 1.1 |
| CCCn1nnc(-c2ccc(-c3ccc(N4C[C@@H](C(O)CF)OC4=O)cc3F)cn2)n1.O=P(O)(O)O (stereo partly shown) | µg/mL | 0.2 |
| Cn1nnc(-c2ccc(-c3ccc(N4C[C@H](C(O)C5CC5)OC4=O)cc3F)cn2)n1.O=P(O)(O)O (stereo partly shown) | µg/mL | 0.1 |
| CCCn1nnc(-c2ccc(-c3ccc(N4C[C@H](C(O)CC)OC4=O)cc3F)cn2)n1.O=P(O)(O)O (stereo partly shown) | µg/mL | 0.8 |
| C=Cn1nnc(-c2ccc(-c3ccc(N4C[C@H](C(O)F)OC4=O)cc3F)cn2)n1.O=P(O)(O)O (stereo partly shown) | µg/mL | 0.3 |
